IC50: recorded values
- System: IFNγ-induced NO production in RAW 264.7 cells
- assayNotes: Nitric Oxide Suppression Assay (IFNγ-induced NO, Griess nitrite readout)
- Format: cell-based, mouse
- reportedConditions: Mus musculus, RAW264.7, Table 2; RAW 264.7 cells, 2 h pretreatment, 20 ng/mL interferon gamma 24 h; read-out: Avg NO IC50 (nM) (Mean ± SD)
Enter your answer as a number in nM; do not include the unit.

Worked examples follow.
querysmiles=CNC(=O)[C@]12CC[C@@H](C)[C@H](C)[C@H]1[C@H]1C(=O)C=C3[C@@]4(C)C=C(C#N)C(=O)C(C)(C)[C@@H]4CC[C@@]3(C)[C@]1(C)CC2 testsystem="IFNγ-induced NO production in RAW 264.7 cells" measurementkind=IC50 valuemeasured=26.8
querysmiles=C[C@@H]1[C@H]2[C@H]3C(=O)C=C4[C@@]5(C)C=C(C#N)C(=O)C(C)(C)[C@@H]5CC[C@@]4(C)[C@]3(C)CC[C@@]2(CN2CCC2=O)CC[C@H]1C testsystem="IFNγ-induced NO production in RAW 264.7 cells" measurementkind=IC50 valuemeasured=2.4

// sample "C[C@@H]1[C@H]2[C@H]3C(=O)C=C4[C@@]5(C)C=C(C#N)C(=O)C(C)(C)[C@@H]5CC[C@@]4(C)[C@]3(C)CC[C@@]2(n2cc(Br)cn2)CC[C@H]1C" , its IC50 was 58.4

----------
- Tested on: IFNγ-induced NO production in RAW 264.7 cells
- assayNotes: Nitric Oxide Suppression Assay (IFNγ-induced NO, Griess nitrite readout)
- Type: cell-based, mouse
- reportedConditions: Table 2; ratio to RTA402
measurementKind: Avg NO IC50 Relative to RTA402 (fold)
Enter your answer as a number in fold; do not include the unit.

compound="C[C@@H]1[C@H]2[C@H]3C(=O)C=C4[C@@]5(C)C=C(C#N)C(=O)C(C)(C)[C@@H]5CC[C@@]4(C)[C@]3(C)CC[C@@]2(C(=O)N2CCC2)CC[C@H]1C [Compound T70]" measurementkind="Avg NO IC50 Relative to RTA402 (fold)" valuemeasured=8.82
compound="C[C@@H]1[C@H]2[C@H]3C(=O)C=C4[C@@]5(C)C=C(C#N)C(=O)C(C)(C)[C@@H]5CC[C@@]4(C)[C@]3(C)CC[C@@]2(n2cccn2)CC[C@H]1C [Compound T64]" measurementkind="Avg NO IC50 Relative to RTA402 (fold)" valuemeasured=14.80
compound="Cc1noc(C[C@]23CC[C@@H](C)[C@H](C)[C@H]2[C@H]2C(=O)C=C4[C@@]5(C)C=C(C#N)C(=O)C(C)(C)[C@@H]5CC[C@@]4(C)[C@]2(C)CC3)n1 [Compound T96]" measurementkind="Avg NO IC50 Relative to RTA402 (fold)" valuemeasured=7.08
compound="C[C@@H]1[C@H]2[C@H]3C(=O)C=C4[C@@]5(C)C=C(C#N)C(=O)C(C)(C)[C@@H]5CC[C@@]4(C)[C@]3(C)CC[C@@]2(c2nc(CF)no2)CC[C@H]1C [Compound T11]" measurementkind="Avg NO IC50 Relative to RTA402 (fold)" valuemeasured=2.10
compound="C[C@@H]1[C@H]2[C@H]3C(=O)C=C4[C@@]5(C)C=C(C#N)C(=O)C(C)(C)[C@@H]5CC[C@@]4(C)[C@]3(C)CC[C@@]2(CNCCO)CC[C@H]1C [Compound T40]" measurementkind="Avg NO IC50 Relative to RTA402 (fold)" valuemeasured=9.8
compound="COCc1noc([C@]23CC[C@@H](C)[C@H](C)[C@H]2[C@H]2C(=O)C=C4[C@@]5(C)C=C(C#N)C(=O)C(C)(C)[C@@H]5CC[C@@]4(C)[C@]2(C)CC3)n1 [Compound T3]" measurementkind="Avg NO IC50 Relative to RTA402 (fold)" valuemeasured=2.51
compound="CNC(=O)[C@]12CC[C@@H](C)[C@H](C)[C@H]1[C@H]1C(=O)C=C3[C@@]4(C)C=C(C#N)C(=O)C(C)(C)[C@@H]4CC[C@@]3(C)[C@]1(C)CC2 [Compound T85]" measurementkind="Avg NO IC50 Relative to RTA402 (fold)" valuemeasured=9.84
compound="C[C@@H]1[C@H]2[C@H]3C(=O)C=C4[C@@]5(C)C=C(C#N)C(=O)C(C)(C)[C@@H]5CC[C@@]4(C)[C@]3(C)CC[C@@]2(CN(C)C(=O)C(F)F)CC[C@H]1C [Compound T39]" measurementkind="Avg NO IC50 Relative to RTA402 (fold)" valuemeasured=3.38
compound="C[C@@H]1[C@H]2[C@H]3C(=O)C=C4[C@@]5(C)C=C(C#N)C(=O)C(C)(C)[C@@H]5CC[C@@]4(C)[C@]3(C)CC[C@@]2(CN2C(=O)CCC2=O)CC[C@H]1C [Compound T75]" measurementkind="Avg NO IC50 Relative to RTA402 (fold)" valuemeasured=1.46
compound="C[C@@H]1[C@H]2[C@H]3C(=O)C=C4[C@@]5(C)C=C(C#N)C(=O)C(C)(C)[C@@H]5CC[C@@]4(C)[C@]3(C)CC[C@@]2(n2ccnn2)CC[C@H]1C [Compound T60]" measurementkind="Avg NO IC50 Relative to RTA402 (fold)" valuemeasured=4.94

Value (Avg NO IC50 Relative to RTA402 (fold), IFNγ-induced NO production in RAW 264.7 cells) for record Cc1noc([C@]23CC[C@@H](C)[C@H](C)[C@H]2[C@H]2C(=O)C=C4[C@@]5(C)C6O[C@@]6(C#N)C(=O)C(C)(C)[C@@H]5CC[C@@]4(C)[C@]2(C)CC3)n1 (stereo partly shown) [Compound T99] = 5.92

----------
- Tested on: IFNγ-induced NO production in RAW 264.7 cells
- assayNotes: Nitric Oxide Suppression Assay (IFNγ-induced NO, Griess nitrite readout)
- Format: cell-based, mouse
- reportedConditions: Mus musculus, RAW264.7, Table 2; RAW 264.7 cells, 2 h pretreatment, 20 ng/mL interferon gamma 24 h; read-out: Avg NO IC50 (nM) (Mean ± SD)
Labelling: IC50 reported below 6 nM becomes Condition met; at or above becomes Condition not met.

Solved entries:
querysmiles=C[C@@H]1[C@H]2[C@H]3C(=O)C=C4[C@@]5(C)C=C(C#N)C(=O)C(C)(C)[C@@H]5CC[C@@]4(C)[C@]3(C)CC[C@@]2(CCC(=O)N2CCC2)CC[C@H]1C testsystem="IFNγ-induced NO production in RAW 264.7 cells" category="Condition met"
querysmiles=C[C@@H]1[C@H]2[C@H]3C(=O)C=C4[C@@]5(C)C=C(C#N)C(=O)C(C)(C)[C@@H]5CC[C@@]4(C)[C@]3(C)CC[C@@]2(C(=O)N2CCC2)CC[C@H]1C testsystem="IFNγ-induced NO production in RAW 264.7 cells" category="Condition not met"
querysmiles=[2H]C([2H])([2H])C(=O)N(C)C[C@]12CC[C@@H](C)[C@H](C)[C@H]1[C@H]1C(=O)C=C3[C@@]4(C)C=C(C#N)C(=O)C(C)(C)[C@@H]4CC[C@@]3(C)[C@]1(C)CC2 testsystem="IFNγ-induced NO production in RAW 264.7 cells" category="Condition met"

## Task Dear colleague, could you confirm whether IC50 of "C[C@@H]1[C@H]2[C@H]3C(=O)C=C4[C@@]5(C)C=C(C#N)C(=O)C(C)(C)[C@@H]5CC[C@@]4(C)[C@]3(C)CC[C@@]2(n2cnnn2)CC[C@H]1C" falls below 6 nM? Thanks.
## Result Condition not met

----------
IC50: recorded values
- Tested on: IFNγ-induced NO production in RAW 264.7 cells
- assayNotes: Nitric Oxide Suppression Assay (IFNγ-induced NO, Griess nitrite readout)
- Format: cell-based, mouse
- reportedConditions: Mus musculus, RAW264.7, Table 3; ursolic acid derivatives; read-out: Avg NO IC50 (nM) (Mean ± SD)
Number first, unit second: that is the form wanted.

Worked examples follow.
querysmiles=C[C@@H]1[C@H]2[C@H]3C(=O)C=C4[C@@]5(C)C=C(C#N)C(=O)C(C)(C)[C@@H]5CC[C@@]4(C)[C@]3(C)CC[C@@]2(N2CCCC2=O)CC[C@H]1C valuemeasured="26 nM"
querysmiles=C[C@@H]1[C@H]2[C@H]3C(=O)C=C4[C@@]5(C)C=C(C#N)C(=O)C(C)(C)[C@@H]5CC[C@@]4(C)[C@]3(C)CC[C@@]2(CNC(=O)OC(C)(C)C)CC[C@H]1C valuemeasured="12.9 nM"
querysmiles=C[C@@H]1[C@H]2[C@H]3C(=O)C=C4[C@@]5(C)C=C(C#N)C(=O)C(C)(C)[C@@H]5CC[C@@]4(C)[C@]3(C)CC[C@@]2(Cn2ccnc2)CC[C@H]1C valuemeasured="17.4 nM"
querysmiles=C[C@@H]1[C@H]2[C@H]3C(=O)C=C4[C@@]5(C)C=C(C#N)C(=O)C(C)(C)[C@@H]5CC[C@@]4(C)[C@]3(C)CC[C@@]2(CNC(=O)C2CC2)CC[C@H]1C valuemeasured="2.33 nM"
querysmiles=C[C@@H]1[C@H]2[C@H]3C(=O)C=C4[C@@]5(C)C=C(C#N)C(=O)C(C)(C)[C@@H]5CC[C@@]4(C)[C@]3(C)CC[C@@]2(CN2CCOC2)CC[C@H]1C valuemeasured="38.2 nM"

// sample "CC(=O)N(C)C[C@]12CC[C@@H](C)[C@H](C)[C@H]1[C@H]1C(=O)C=C3[C@@]4(C)C=C(C#N)C(=O)C(C)(C)[C@@H]4CC[C@@]3(C)[C@]1(C)CC2" , its IC50 was 5.57 nM

// sample "C[C@@H]1[C@H]2[C@H]3C(=O)C=C4[C@@]5(C)C=C(C#N)C(=O)C(C)(C)[C@@H]5CC[C@@]4(C)[C@]3(C)CC[C@@]2(CN2CCOC2=O)CC[C@H]1C" , its IC50 was 5.41 nM

// sample "C[C@@H]1[C@H]2[C@H]3C(=O)C=C4[C@@]5(C)C=C(C#N)C(=O)C(C)(C)[C@@H]5CC[C@@]4(C)[C@]3(C)CC[C@@]2(c2nc(CN(C)C)no2)CC[C@H]1C" , its IC50 was 3.33 nM

// sample "C[C@@H]1[C@H]2[C@H]3C(=O)C=C4[C@@]5(C)C=C(C#N)C(=O)C(C)(C)[C@@H]5CC[C@@]4(C)[C@]3(C)CC[C@@]2(CN2CCCC2=O)CC[C@H]1C" , its IC50 was 4.2 nM

// sample "C[C@@H]1[C@H]2[C@H]3C(=O)C=C4[C@@]5(C)C=C(C#N)C(=O)C(C)(C)[C@@H]5CC[C@@]4(C)[C@]3(C)CC[C@@]2(CO)CC[C@H]1C" , its IC50 was 1.86 nM
